Read-out: Tissue Factor, F3 (gene 2152)
measurement-notes: BSK_CASM3C_TissueFactor: BioMAP Diversity Plus: CASM3C Assay for Tissue Factor Biomarker Activity (AID 2283052);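 also: cell surface tissue factor protein level read by ELISA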
assay-context: primary human coronary artery smooth muscle cells; actives raise or lower the signal
Active and inactive are the calls of the source. The calls were made as follows: active = hit-call score of the fitted dose curve at least 0.9, where 1 is the maximum; inactive = score below 0.9.
parameter: outcome

{"compound": "CON(C)C(=O)Nc1ccc(Cl)c(Cl)c1", "outcome": "inactive"}
{"compound": "Oc1ccccc1-c1ccccc1", "outcome": "inactive"}
{"compound": "Cc1cc(Cl)ccc1OCC(=O)O", "outcome": "inactive"}
{"compound": "CC1=C(C(=O)Nc2ccccc2)SCCO1", "outcome": "inactive"}
{"compound": "C=CC1(C)OC(=O)N(c2cc(Cl)cc(Cl)c2)C1=O (stereo not given)", "outcome": "inactive"}

Please state outcome for every compound in the list that follows.
1. C=CCC1=C(C)[C@@H](OC(=O)[C@@H]2[C@@H](C=C(C)C)C2(C)C)CC1=O
2. CCOC(=O)CC(SP(=S)(OC)OC)C(=O)OCC (stereo not given)

1. inactive
2. inactive

Please state outcome for every compound in the list that follows.
1. N#CC(CCc1ccc(Cl)cc1)(Cn1cncn1)c1ccccc1 (stereo not given)
2. COC(=O)C=C(C)OP(=O)(OC)OC
3. CNC(=O)ON=CC(C)(C)SC
4. C=CCC1=C(C)C(OC(=O)C2C(C=C(C)C)C2(C)C)CC1=O (stereo not given)
5. COc1cnc(OC)n2nc(NS(=O)(=O)c3c(OCC(F)F)cccc3C(F)(F)F)nc12
6. CN(C)C(=S)SSC(=S)N(C)C
7. CCOC(=O)C(Cl)Cc1cc(-n2nc(C)n(C(F)F)c2=O)c(F)cc1Cl (stereo not given)
8. COc1nc(NC(C)C)nc(NC(C)C)n1

["inactive", "inactive", "inactive", "inactive", "inactive", "inactive", "inactive", "inactive"]

Please state outcome for every compound in the list that follows.
1. COP(N)(=O)SC (stereo not given)
2. OC(c1ccc(Cl)cc1)(c1cncnc1)c1ccccc1Cl (stereo not given)

1: inactive; 2: inactive

Origin of measurements: PubChem BioAssay (EPA / NIEHS)
